system: MCF7; experiment: Cell proliferation assay, control cell line; settings: Homo sapiens, MCF7, 72 h, read-out: IC50 MCF7
pIC50: −log10 of the molar value.
Property: pIC50; scope: individual molecules

Input line: Entry Cc1cc(Nc2cc(N3CCN(C)CC3)nc(Sc3ccc(NC(=O)C4CC4)cc3)n2)[nH]n1 [Tozasertib] has what pIC50?
Output line: 5.30

###

tested on: GIST-T1/10R; experiment: Cell proliferation assay (Cell Counting Kit-8); format: cell-based, human; details: Homo sapiens, GISTT1; cell viability after 72 hours of treatment; read-out: IC50 T1-10R
outcome.measure: IC50

Use the examples below as a reference point.
O=C1CCC(N2C(=O)c3ccccc3C2=O)C(=O)N1 (centres unmarked) [Thalidomide]: > 100 µM
C[C@H]1O[C@@H](O[C@H]2[C@@H](O)C[C@H](O[C@H]3[C@@H](O)C[C@H](O[C@H]4CC[C@@]5(C)[C@H](CC[C@@H]6[C@@H]5CC[C@]5(C)[C@@H](C7=CC(=O)OC7)CC[C@]65O)C4)O[C@@H]3C)O[C@@H]2C)C[C@H](O)[C@@H]1O: 0.5 µM

Let's switch to this compound now.
Input line: Entry `CS(=O)(=O)N1CCN(Cc2cc3nc(-c4cccc5[nH]ncc45)nc(N4CCOCC4)c3s2)CC1` has what IC50?
Output line: > 1 µM

###

Property: IC50; scope: individual compounds
system: MCF7; experiment: Cell proliferation assay, control cell line; conditions: Homo sapiens, MCF7, 72 h, read-out: IC50 MCF7

CCc1c2c(nc3ccc(OC(=O)N4CCC(N5CCCCC5)CC4)cc13)-c1cc3c(c(=O)n1C2)COC(=O)[C@]3(O)CC [Irinotecan]: 5 µM
O=C1CCc2c(ccc3ccccc23)O1 [Splitomicin]: > 10 µM
Clc1ccc(Nc2nnc(Cc3ccncc3)c3ccccc23)cc1 [Vatalanib]: > 10 µM

Input line: Entry CC(C)[C@]12O[C@H]1[C@@H]1O[C@]13[C@]1(O[C@H]1C[C@H]1C4=C(CC[C@@]13C)C(=O)OC4)[C@@H]2O [Triptolide] has what IC50?
Output line: > 10 µM

###

system: MCF7; experiment: Cell proliferation assay, control cell line; settings: Homo sapiens, MCF7, 72 h, read-out: IC50 MCF7
pIC50: −log10 of the molar value.
Property: pIC50; scope: individual molecules

CNC(=O)c1cc(Oc2ccc(NC(=O)Nc3ccc(Cl)c(C(F)(F)F)c3)c(F)c2)ccn1: < 5.00
Cc1ccc(Nc2nccc(N(C)c3ccc4c(C)n(C)nc4c3)n2)cc1S(N)(=O)=O: < 5.00

Let's switch to this molecule now.
Input line: Entry `C[C@]12O[C@H](C[C@]1(O)CO)n1c3ccccc3c3c4c(c5c6ccccc6n2c5c31)CNC4=O` has what pIC50?
Output line: < 5.00

###

test system: GIST-T1/10R; experiment: Cell proliferation assay (Cell Counting Kit-8); assay type: cell-based, human; details: Homo sapiens, GISTT1; cell viability after 72 hours of treatment; read-out: IC50 T1-10R
outcome.measure: IC50

Use the examples below as a reference point.
O=C1C=CC(=O)c2c(O)cccc21 [Juglone]: 5 µM
C[C@]12O[C@H](C[C@]1(O)CO)n1c3ccccc3c3c4c(c5c6ccccc6n2c5c31)CNC4=O [Lestaurtinib]: 5 µM
Cc1nc(Nc2ncc(C(=O)Nc3c(C)cccc3Cl)s2)cc(N2CCN(CCO)CC2)n1 [Dasatinib]: > 10 µM
CNC(=O)c1cc(Oc2ccc(NC(=O)Nc3ccc(Cl)c(C(F)(F)F)c3)c(F)c2)ccn1 [Regorafenib]: 1 µM
Cc1ccc(Nc2nccc(N(C)c3ccc4c(C)n(C)nc4c3)n2)cc1S(N)(=O)=O [Pazopanib]: > 1 µM
O=C(O)c1cc(N(Cc2ccccc2O)Cc2cc(O)ccc2O)ccc1O [Lavendustin A]: > 15 µM
Oc1c2ccccc2c2c3c(cccc13)N=N2 [SP600125]: 1 µM
CNC(=O)c1cc(Oc2ccc(NC(=O)Nc3ccc(Cl)c(C(F)(F)F)c3)cc2)ccn1 [Sorafenib]: 0.2 µM

Input line: Which IC50 is reported with GIST-T1/10R for this entry: Cc1cc(Nc2cc(N3CCN(C)CC3)nc(Sc3ccc(NC(=O)C4CC4)cc3)n2)[nH]n1 [Tozasertib] ?
Output line: > 10 µM

Input line: And then O=S(=O)(c1cccc2cnccc12)N1CCCNCC1 [Fasudil] , what is it?
Output line: ~70 µM
